The measured values listed here are drawn from patent US5294605A.

Tested on: Staphylococcus epidermidis
assay-overview: Antimicrobial assay for deletion analogues (Example 10), MIC
Assay type: cell-based
reported-conditions: Table VII; 3.0×10^5 CFU/ml, 20 hours, LB medium
measured-metric: Minimum Inhibitory Concentration S. epidermidis (µg/mL)

substance	result-unit	endpoint-value
Ac-LKLLKKLLKLKKLLKKL-NH2 [9 (X(SEQ ID NO: 51) --NH2)]	µg/mL	4
Ac-LKLLKKLLKKLKKLLKK-NH2 [18 (X(SEQ ID NO: 56) --NH2)]	µg/mL	2
Ac-LKLLKLLKKLKKLLKKL-NH2 [5 (X(SEQ ID NO: 49) --NH2)]	µg/mL	2
Ac-LKLLKKLLKKLKKLLKL-NH2 [16 (X(SEQ ID NO: 55) --NH2)]	µg/mL	4
Ac-KLLKKLLKKLKKLLKKL-NH2 [1 (X(SEQ ID NO: 46) --NH2)]	µg/mL	4
Ac-LKLLKKLLKKLKKLKKL-NH2 [14 (X(SEQ ID NO: 54) --NH2)]	µg/mL	2
Ac-LKLLKKLKKLKKLLKKL-NH2 [7 (X(SEQ ID NO: 50) --NH2)]	µg/mL	2

###

Test system: E. coli ATCC 25922
assay-overview: Antibacterial assay, NCCLS M7-T2 microdilution (Example 15), MIC
Format: cell-based
reported-conditions: Table XI; Mueller Hinton broth, 16-20 hours 37° C., 1-5×10^5 CFUs/ml
Ends that are not written are not given here.
Listed substances paired with reported MIC E (E. coli)

substance	study-system	MIC E (E. coli) (µg/mL)
Ac-LLKKLKKLLKKLLKLL-NH2 [X-(SEQ ID NO: 4) --NH2]	E. coli ATCC 25922	32
Ac-KKLLKKLKKLLKKL-NH2 [X-(SEQ ID NO: 65) --NH2]	E. coli ATCC 25922	32
Ac-LKLLKKLLKKGKKLLKKL-NH2 [X-(SEQ ID NO: 68) --NH2]	E. coli ATCC 25922	16
LLKKLKKLLKKLLKLL-NH2 [(SEQ ID NO: 4) --NH2]	E. coli ATCC 25922	32
Ac-LKKLLKKLKKLLKKL-NH2 [X-(SEQ ID NO: 66) --NH2]	E. coli ATCC 25922	8

###

Test system: Pseudomonas aeruginosa
Type: cell-based
reported-conditions: Table VI; methionine sulfoxide diastereomer fractions, 20 hours, LB medium
Square brackets hold non-standard residues; d marks the D form. Ends that are not written are not given here. Met(O) = CS(=O)CC[C@H](N)C(=O)O
Listed substances paired with reported Min. Inhibitory Concentration P. Aeruginosa
measured-metric: Min. Inhibitory Concentration P. Aeruginosa (µg/mL)

substance	result-unit	limit-sign	endpoint-value
11 (SEQ ID NO: 15) 20/80: residue 11 methionine sulfoxide analogue, fraction by proportion of L-methionine-L-/D-sulfoxide (assignment undetermined) (LKLLKKLLKK[Met(O)]KKLLKKL; also: sulfoxide L-/D- 20/80 mixture, assignment undetermined)	µg/mL	=	5
11 (SEQ ID NO: 15) 70/30: residue 11 methionine sulfoxide analogue, fraction by proportion of L-methionine-L-/D-sulfoxide (assignment undetermined) (LKLLKKLLKK[Met(O)]KKLLKKL; also: sulfoxide L-/D- 70/30 mixture, assignment undetermined)	µg/mL	=	2.5
7 (SEQ ID NO: 11) 70/30: residue 7 methionine sulfoxide analogue, fraction by proportion of L-methionine-L-/D-sulfoxide (assignment undetermined) (LKLLKK[Met(O)]LKKLKKLLKKL; also: sulfoxide L-/D- 70/30 mixture, assignment undetermined)	µg/mL	>	5
4 (SEQ ID NO: 8) 50/50: residue 4 methionine sulfoxide analogue, fraction by proportion of L-methionine-L-/D-sulfoxide (assignment undetermined) (LKL[Met(O)]KKLLKKLKKLLKKL; also: sulfoxide L-/D- 50/50 mixture, assignment undetermined)	µg/mL	=	5
4 (SEQ ID NO: 8) 60/40: residue 4 methionine sulfoxide analogue, fraction by proportion of L-methionine-L-/D-sulfoxide (assignment undetermined) (LKL[Met(O)]KKLLKKLKKLLKKL; also: sulfoxide L-/D- 60/40 mixture, assignment undetermined)	µg/mL	=	5
7 (SEQ ID NO: 11) 20/80: residue 7 methionine sulfoxide analogue, fraction by proportion of L-methionine-L-/D-sulfoxide (assignment undetermined) (LKLLKK[Met(O)]LKKLKKLLKKL; also: sulfoxide L-/D- 20/80 mixture, assignment undetermined)	µg/mL	>	5
